Origin of values: patent US20180179210A1

Hi there, I'd appreciate the recorded IC50 for every entry that follows.
System Name: human BTK kinase (hBTK) (Homo sapiens, UniProt Q06187)
Sequence (Q06187 whole entry): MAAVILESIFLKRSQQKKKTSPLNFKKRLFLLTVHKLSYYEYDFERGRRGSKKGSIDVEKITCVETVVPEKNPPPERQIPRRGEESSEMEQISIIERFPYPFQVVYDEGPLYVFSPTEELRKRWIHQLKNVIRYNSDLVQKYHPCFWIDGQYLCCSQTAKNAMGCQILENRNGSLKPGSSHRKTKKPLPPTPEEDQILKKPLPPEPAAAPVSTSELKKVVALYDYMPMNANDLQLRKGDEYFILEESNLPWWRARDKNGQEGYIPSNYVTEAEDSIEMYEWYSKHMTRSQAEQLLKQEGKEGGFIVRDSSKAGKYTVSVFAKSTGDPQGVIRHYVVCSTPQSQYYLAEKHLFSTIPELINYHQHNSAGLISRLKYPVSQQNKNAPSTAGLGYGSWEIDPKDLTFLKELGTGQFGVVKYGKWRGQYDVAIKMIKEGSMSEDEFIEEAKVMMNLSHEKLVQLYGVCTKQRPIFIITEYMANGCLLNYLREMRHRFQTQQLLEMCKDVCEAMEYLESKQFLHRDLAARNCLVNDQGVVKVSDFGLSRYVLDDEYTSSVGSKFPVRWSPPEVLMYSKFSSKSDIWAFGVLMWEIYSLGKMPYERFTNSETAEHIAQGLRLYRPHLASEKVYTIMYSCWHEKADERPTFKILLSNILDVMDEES
Give bare numbers, in µM.

Some solved cases for reference:
Cc1ncc(COc2cc(F)cc(Oc3ccc(-c4nn(C[C@H]5CCCN5C(=O)C5=CCCC5)c5ncnc(N)c45)cc3)c2)cn1 | 0.119
C=C(C)C(=O)N1CCC[C@@H]1Cn1nc(-c2ccc(Oc3cc(F)cc(OCc4cnc(C)nc4)c3)cc2)c2c(N)ncnc21 | 0.125

Recorded IC50 for C=CC(=O)N1CC[C@@H](n2nc(-c3ccc(Oc4cc(F)cc(OCc5cnc(C)nc5)c4)cc3)c3c(N)ncnc32)C1 , please?
0.006
